Item-by-item account of pKd
MEASURED_TARGET: T1, recombinant human TIGIT (Sino Biological) (human, UniProt Q495A1 22-138)
T1 construct: Bought protein; NP_776160.2; also called human TIGIT antigen; hTIGIT
T1 sequence: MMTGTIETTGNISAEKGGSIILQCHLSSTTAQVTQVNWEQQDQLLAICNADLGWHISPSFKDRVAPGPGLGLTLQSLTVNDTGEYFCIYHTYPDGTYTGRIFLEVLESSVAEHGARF
PROCEDURE_SUMMARY: SPR (Biacore T200), single cycle kinetics, IgG from supernatant captured on anti-human chip, TIGIT as analyte, 1:1 fit;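 also: measured at 25 °C in HBS-P+ with 1% BSA, four ascending TIGIT concentrations, 210 s association per step, one final 900 s dissociation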
pKd (log units): -log10 of the concentration in mol/L.

Recorded results for 4 binders are shown here.
Input: Which pKd value is on record for 7A6 VH5/Vκ2 humanized antibody (human IgG1, kappa) (antibody, V domains shown, Tested as IgG in supernatant of transiently transfected HEK293 EBNA cells) VH: QVQLQESGPGLVKPSQTLSLTCTVTGYSITSDYAWNWIRQPPGKGLEWMGYISYSGSARYNPSLKSRVTISVDTSKNQFSLKLSSVTAADTAVYYCARKGYPAYFAYWGQGTLVTVSS VL: DIVMTQSPSSLSASVGDRVSITCKASQDVSTAVAWYQQKPGQAPRLLIYSASYRYTGVPDRFTGSGSGTDFTLTISSLQAEDVAVYYCQHHYSTPYTFGQGTKLEIKR ?
Output: 8.78

Input: For the binder 7A6 VH4/Vκ2 humanized antibody (human IgG1, kappa) (antibody, V domains shown, Tested as IgG in supernatant of transiently transfected HEK293 EBNA cells) VH: QVQLQESGPGLVKPSQTLSLTCTVTGYSITSDYAWNWIRQPPGKGLEWMGYISYSGSARYNPSLKSRVTISRDTSKNQFSLKLSSVTAADTAVYYCARKGYPAYFAYWGQGTLVTVSS VL: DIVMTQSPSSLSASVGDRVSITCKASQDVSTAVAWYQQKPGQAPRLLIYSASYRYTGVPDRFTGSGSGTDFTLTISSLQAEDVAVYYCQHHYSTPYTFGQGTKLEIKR , what pKd is on record?
Output: 8.97

Input: Query: pKd; subject: 7A6 VH5/Vκ5 humanized antibody (human IgG1, kappa) (antibody, V domains shown, Tested as IgG in supernatant of transiently transfected HEK293 EBNA cells) VH: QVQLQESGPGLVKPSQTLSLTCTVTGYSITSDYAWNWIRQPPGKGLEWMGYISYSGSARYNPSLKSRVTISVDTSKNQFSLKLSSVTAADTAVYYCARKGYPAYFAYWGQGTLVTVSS VL: DIQMTQSPSSLSASVGDRVSITCKASQDVSTAVAWYQQKPGQAPRLLIYSASYRYTGVPDRFSGSGSGTDFTLTISSLQPEDFATYYCQHHYSTPYTFGQGTKLEIKR
Output: 8.90

Input: pKd for 7A6 VH5/Vκ4 humanized antibody (human IgG1, kappa) (antibody, V domains shown, Tested as IgG in supernatant of transiently transfected HEK293 EBNA cells) VH: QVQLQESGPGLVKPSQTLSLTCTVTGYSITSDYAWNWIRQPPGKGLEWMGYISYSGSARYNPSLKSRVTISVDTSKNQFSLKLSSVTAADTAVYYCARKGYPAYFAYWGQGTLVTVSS VL: DIQMTQSPSSLSASVGDRVTITCRASQDVSTAVAWYQQKPGQAPRLLIYSASYRYTGVPDRFSGSGSGTDFTLTISSLQAEDVAVYYCQHHYSTPYTFGQGTKLEIKR ?
Output: 8.82

***
Input: Using the record for 7A6 VH4/Vκ5 humanized antibody (human IgG1, kappa) (antibody, V domains shown, Tested as IgG in supernatant of transiently transfected HEK293 EBNA cells) VH: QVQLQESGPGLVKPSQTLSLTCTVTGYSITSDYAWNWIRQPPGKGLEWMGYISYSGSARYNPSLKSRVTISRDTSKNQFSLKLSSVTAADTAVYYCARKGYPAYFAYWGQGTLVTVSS VL: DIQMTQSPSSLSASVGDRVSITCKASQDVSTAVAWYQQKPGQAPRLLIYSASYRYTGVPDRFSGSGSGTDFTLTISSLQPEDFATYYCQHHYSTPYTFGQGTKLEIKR , report its pKd.
Output: 9.04
